Cited source: ChEMBL document CHEMBL4513216

Could you please report measured cytotoxicity at 10 µM for the items listed next?
- test-method-notes: Toxicity liver stage against HepG2, at 10uM
- Format: cell-based
- Design: test concentration 10 uM, cell line HepG2-A16-CD81EGFP
- condition-parameters: human, HepG2-A16-CD81EGFP cells; read-out: INHIBITION
Give bare numbers, in %.

{"compound": "CCNC(=O)N1CCC2(C1)c1ccccc1S(=O)(=O)N2CCOC (stereo unspecified)", "output-unit": "%", "measured-result": -151}
{"compound": "Cc1occc1C(=O)NCC(=O)N(C)CCCOc1ccc(F)cc1", "output-unit": "%", "measured-result": -41.9}

Go through the list and state cytotoxicity at 10 µM for each entry.
1. OC(CNC1CCSCC1)c1cccc(OCc2ccccc2)c1 (stereo unspecified)
2. CCC(C(=O)NC1(C(N)=O)CCCC1)n1cccn1 (stereo unspecified)
3. CC(C)COc1ccc(C2SCC(=O)Nc3c2c(=O)[nH]n3C(C)C)cc1 (stereo unspecified)
4. CSc1ccc(C(=O)C2CCCN(C(=O)CCCn3cncn3)C2)cc1 (stereo unspecified)
5. CN(C)c1ncccc1CNS(=O)(=O)c1ccc(F)cc1F
6. Cc1nn(C(C)C)c(C)c1S(=O)(=O)Nc1cccc(C(=O)O)c1

[8.22, -9.13, 8.74, 6.26, -3, 9.53]
